Target Or Test System: human prostanoid EP4 receptor (Homo sapiens, UniProt P35408)
Construct: expressed in transfected cells
Sequence (P35408 whole entry): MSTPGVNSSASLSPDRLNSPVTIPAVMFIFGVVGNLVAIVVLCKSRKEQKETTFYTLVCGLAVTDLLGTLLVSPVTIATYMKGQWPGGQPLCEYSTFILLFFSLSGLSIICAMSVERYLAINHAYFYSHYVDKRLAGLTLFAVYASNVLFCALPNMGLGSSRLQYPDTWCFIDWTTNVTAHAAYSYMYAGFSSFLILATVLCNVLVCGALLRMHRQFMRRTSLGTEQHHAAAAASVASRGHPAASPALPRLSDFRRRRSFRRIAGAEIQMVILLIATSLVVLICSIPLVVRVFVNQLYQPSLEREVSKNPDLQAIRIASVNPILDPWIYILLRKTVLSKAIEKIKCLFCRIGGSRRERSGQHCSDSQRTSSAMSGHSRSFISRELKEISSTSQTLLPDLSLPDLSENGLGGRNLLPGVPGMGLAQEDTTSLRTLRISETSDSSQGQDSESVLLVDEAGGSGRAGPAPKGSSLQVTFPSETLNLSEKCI
Test Method Notes: PG antagonist activity, Ca2+ signal in human recombinant prostanoid receptor stable cell line
Assay type: cell-based
Stated Conditions: parameter and unit not given
Entries whose EP4 (PG antagonist activity) is below 90 take true; entries at or above 90 take false.

• O=C(O)CCc1ccc(F)cc1CC1C2CCC(O2)C1c1nc(C(=O)NCCCCC2CCCCC2)co1 (stereo not drawn) = false
• O=C(O)/C=C/c1ccc(F)cc1C[C@@H]1C(c2nc(C(=O)NCCCCC3CCCCC3)co2)C2CC[C@H]1O2 (stereo partly drawn) = true
• CCCCCCCCNC(=O)c1coc(C2C3CCC(O3)C2Cc2cc(F)ccc2CCC(=O)O)n1 (stereo not drawn) = false
• CCCCCCCCNC(=O)c1coc(C2C3CCC(O3)C2Cc2cc(F)ccc2/C=C/C(=O)O)n1 (stereo not drawn) = false
• CCCCCCCCCNC(=O)c1coc(C2C3CCC(O3)C2Cc2cc(F)ccc2/C=C/C(=O)O)n1 (stereo not drawn) = false
